The measured values listed here are drawn from patent US10206907B2.

test: Caco2 permeability (bi-directional); format: in vitro ADME, human; settings: human, pH 7.4; Caco-2, ratio of PappB>A/PappA>B
efflux ratio at 1 h, 10 µM for assorted compounds
// no unit string in output, number only

Would you kindly share the measured efflux ratio at 1 h, 10 µM for "CN(CCc1ccccc1)C(=O)c1ccc(-c2cccc3nc(NC(=O)C4CC4)nn23)cc1" ?
1

Another compound: "O=C(Nc1nc2cccc(-c3ccc(CNc4ncccn4)cc3)n2n1)C1CC1"
1.6

Another compound: "O=C(Nc1nc2cccc(-c3ccc(CN4CCC(F)(F)CC4)cc3)n2n1)C1CC1"
0.9

Now for another entry.
Would you kindly share the measured efflux ratio at 1 h, 10 µM for "O=C(Nc1nc2cccc(-c3ccc(OCc4ccccc4)cc3)n2n1)C1CC1" ?
0.82
